Assay: Determination of pKa (capillary electrophoresis, Analiza)
Type: physicochemical
Conditions: most basic pKa, mean
Counter-ions that a name gives are not always drawn.

# MOLECULE, pKa
records = [
    ("CCOc1cc(F)cnc1Oc1cncc(-c2ncc(C(=O)N[C@H]3CNCC[C@@H]3F)cn2)c1 [Example 13, formate salt]", 6.7),
    ("CCOc1cccnc1Oc1cncc(-c2ncc(C(=O)N[C@H]3CNC[C@H](F)C3)cn2)c1 [Example 7, trifluoroacetate salt]", 7.5),
    ("CCOc1cc(F)cnc1Oc1cncc(-c2ncc(C(=O)N[C@@H]3CNC[C@@H](F)C3)cn2)c1", 7.3),
    ("CCOc1cccnc1Oc1cncc(-c2ncc(C(=O)N[C@@H]3CNCC[C@H]3F)cn2)c1", 7.3),
    ("CCOc1cccnc1Oc1cncc(-c2ncc(C(=O)N[C@@H]3CNCC(F)(F)C3)cn2)c1 (single isomer, unassigned)", 5.2),
    ("CCOc1cccnc1Oc1cncc(-c2ncc(C(=O)NC3CCC(C(F)(F)F)NC3)cn2)c1 (single isomer, unassigned; ent-2)", 4.5),
    ("CCOc1cccnc1Oc1cncc(-c2ncc(C(=O)N[C@H]3CNCC[C@@H]3F)cn2)c1 [Example 12, trifluoroacetate salt]", 7.5),
]

Hello, the source for this data is patent US11065249B2, in case you need it.
